Cited source for all entries: patent US9034921B2

Item-by-item account of log10 IC50
# SUBJECT OF TEST: human SGLT2 (Homo sapiens (Human))
# Sequence (P31639 whole entry): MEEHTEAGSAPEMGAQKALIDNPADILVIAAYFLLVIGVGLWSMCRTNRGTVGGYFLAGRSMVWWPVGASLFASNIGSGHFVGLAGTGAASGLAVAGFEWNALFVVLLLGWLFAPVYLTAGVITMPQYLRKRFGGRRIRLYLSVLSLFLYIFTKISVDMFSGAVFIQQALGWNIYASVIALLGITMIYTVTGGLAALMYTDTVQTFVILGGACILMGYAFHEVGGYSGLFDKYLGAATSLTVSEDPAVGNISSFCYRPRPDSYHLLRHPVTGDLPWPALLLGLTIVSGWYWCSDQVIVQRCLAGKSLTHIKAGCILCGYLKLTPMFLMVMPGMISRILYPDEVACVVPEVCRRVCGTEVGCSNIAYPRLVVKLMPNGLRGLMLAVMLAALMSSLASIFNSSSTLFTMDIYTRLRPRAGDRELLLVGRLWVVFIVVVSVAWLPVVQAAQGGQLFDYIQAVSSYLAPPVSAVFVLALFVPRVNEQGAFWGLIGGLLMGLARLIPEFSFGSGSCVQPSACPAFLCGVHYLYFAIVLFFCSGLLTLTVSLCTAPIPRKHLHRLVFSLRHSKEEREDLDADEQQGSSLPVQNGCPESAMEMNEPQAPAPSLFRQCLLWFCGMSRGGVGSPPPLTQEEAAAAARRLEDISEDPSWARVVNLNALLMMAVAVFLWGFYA
# ASSAY METHOD TEXT: Inhibitory effects on human SGLT2 activities (14C-AMG uptake, sodium-dependent glucose transport assay)
# TEST PARAMETERS: CHO cells stably expressing hSGLT2, 37° C., 2 h, single determinations
Where a name gives a salt, the structure may show the parent alone.
Hello, just confirming the data are log10 of IC50 with units of nM.

Reference set (2 entries):
[[record]]
compound = "CN(C)Cc1ccc(Cc2cc([C@@H]3O[C@H](CO)[C@@H](O)[C@H](O)[C@H]3O)c3c(c2Cl)OCC3)cc1 [Example E184, acetic acid salt]"
quantitative_readout = 2.21

[[record]]
compound = "CCc1ccc(Cc2cc([C@@H]3O[C@H](CO)[C@@H](O)[C@H](O)[C@H]3O)c3c(c2Cl)OCCO3)cc1 [Example E105]"
quantitative_readout = -0.03


State its log10 IC50 on human SGLT2 (Homo sapiens (Human)): Cc1c(Cc2ccc(C3CC3)cc2)cc([C@@H]2O[C@H](CO)[C@@H](O)[C@H](O)[C@H]2O)c2c1OCC2 [Example E178]
0.06

State its log10 IC50 on human SGLT2 (Homo sapiens (Human)): Cn1cc2cc(Cc3cc([C@@H]4O[C@H](CO)[C@@H](O)[C@H](O)[C@H]4O)ccc3Cl)ccc2n1 [Example E036]
0.36

State its log10 IC50 on human SGLT2 (Homo sapiens (Human)): CCOc1ccc(Cc2cc([C@@H]3O[C@H](CO)[C@@H](O)[C@H](O)[C@H]3O)c3c(c2Cl)C(C)CO3)cc1 (some centres unmarked) [Example E222]
0.30
